These data points were gathered from the supplement of paper PMC11451515.

- Test system: P12-Ichikawa
- test summary: cell viability relative to DMSO control; higher = less cytotoxic
- measurement context: RPMI 5 mM glucose + 10% FBS; 48 h; 46.1 µM
For each of the compounds below, state its cell viability.
The reply should contain only the number, in %.

Quick note, cell viability for Cc1nnc(C(C)C)n1[C@@H]1C[C@H]2CC[C@@H](C1)N2CC[C@H](NC(=O)C1CCC(F)(F)CC1)c1ccccc1 landed at 59.2

Quick note, cell viability for COc1cccc(OC)c1-c1cc(C(=O)NC2(C(=O)O)C3CC4CC(C3)CC2C4)nn1-c1ccnc2cc(Cl)ccc12 (stereo not drawn) landed at 97.5

Quick note, cell viability for C[C@@H](Cc1cc2c(c(C(N)=O)c1)N(CCCO)CC2)NCCOc1ccccc1OCC(F)(F)F landed at 102

Quick note, cell viability for O=c1oc2cc(O)ccc2s1 landed at 96.8

Quick note, cell viability for COC(=O)CCC1=C(C)C2=CC3=NC(=CC4=C(C)C(=C([NH]4)C=C\5N=C(C=C1[NH]2)\C(=C5C)CCC(O)=O)C=C)\C6=C\C=C(/[C@@H](C(=O)OC)[C@@]36C)C(=O)OC landed at 60.9

Quick note, cell viability for C[C@H](NC(=O)[C@@H](O)c1cc(F)cc(F)c1)C(=O)N[C@@H]1C(=O)N(C)c2ccccc2-c2ccccc21 landed at 94.3

Quick note, cell viability for c1ccc2c(CN3CCNCC3)cccc2c1 landed at 26.4

Quick note, cell viability for CC(=O)N(O)CCCCCNC(=O)CCC(=O)N(O)CCCCCNC(=O)CCC(=O)N(O)CCCCCN.C[S+](=O)([O-])O landed at 12.3

Quick note, cell viability for COC(=O)[C@H](Cc1ccccc1)NC(=O)[C@@H](N)CC(=O)O landed at 108

Quick note, cell viability for COc1cc(N2CCC(N3CCN(C)CC3)CC2)ccc1Nc1ncc(Cl)c(Nc2ccccc2[S+](=O)([O-])C(C)C)n1 landed at 40.3

Quick note, cell viability for C=C1CCC2[C@](C)(CO)C(O)CC[C@]2(C)C1C/C=C1/C(=O)OCC1O (stereo partly drawn) landed at 107

Quick note, cell viability for COc1cccc(N(C)C(=S)Oc2ccc3c(c2)CCCC3)n1 landed at 88.1

Quick note, cell viability for O=C(CCCN1CCC(O)(c2ccc(Cl)cc2)CC1)c1ccc(F)cc1 landed at 95.9

Quick note, cell viability for CC[C@H](CO)Nc1nc(NCc2ccccc2)c2ncn(C(C)C)c2n1 landed at 78.2

Quick note, cell viability for Nc1cc(N2CCCCC2)nc(N)[n+]1[O-] landed at 127

Quick note, cell viability for COc1cc(N2CCN(C)CC2)ccc1Nc1nc(N)c(C(=O)c2c(Cl)cccc2Cl)s1 landed at 50.5

Quick note, cell viability for NC(=O)N1CCC(CC(=O)N2CCC([C@H]3c4ncc(Br)cc4CCc4cc(Cl)cc(Br)c43)CC2)CC1 landed at 42.5

Quick note, cell viability for N#CC1(c2cccc(C(=O)Nc3cc(Oc4ccc5nc(NC(=O)C6CC6)sc5n4)ccc3F)c2Cl)CC1 landed at 13.4
